- assay target: UniProt:Q72874
- run description: Inhibition of purified recombinant HIV-1 protease in a fluorogenic assay
measured endpoint: IC50

# annotated cases, reported IC50 shown
>>> value_measured("CC(C)[C@H](NC(=O)N(C)Cc1ccccn1)C(=O)N[C@@H](Cc1ccccc1)[C@@H](O)[C@H](O)[C@H](Cc1ccccc1)NC(=O)[C@H](NC(=O)N(C)Cc1ccccn1)C(C)C")
"< 1 nM"
>>> value_measured("CC(C)[C@H](NC(=O)CCc1cccnc1)C(=O)N[C@@H](Cc1ccccc1)[C@@H](O)[C@@H](O)[C@H](Cc1ccccc1)NC(=O)[C@H](NC(=O)CCc1cccnc1)C(C)C")
"1.5 nM"
>>> value_measured("CC(C)[C@H](NC(=O)CCc1ccccn1)C(=O)N[C@@H](Cc1ccccc1)C(O)[C@H](Cc1ccccc1)NC(=O)[C@H](NC(=O)CCc1ccccn1)C(C)C (some centres not stated)")
"12 nM"
>>> value_measured("CC(C)[C@H](NC(=O)N1CCN(Cc2ccccc2)CC1)C(=O)N[C@@H](Cc1ccccc1)[C@H](O)[C@H](O)[C@H](Cc1ccccc1)NC(=O)[C@H](NC(=O)N1CCN(Cc2ccccc2)CC1)C(C)C")
"9 nM"
>>> value_measured("CC(C)[C@H](NC(=O)OCc1ccccc1)C(=O)N[C@@H](Cc1ccccc1)[C@H](O)[C@H](O)[C@H](Cc1ccccc1)NC(=O)[C@H](NC(=O)OCc1ccccc1)C(C)C")
"< 1 nM"

Quick one: IC50 for CC(C)[C@H](NC(=O)N(C)Cc1csc(N)n1)C(=O)N[C@@H](Cc1ccccc1)[C@@H](O)[C@H](O)[C@H](Cc1ccccc1)NC(=O)[C@H](NC(=O)N(C)Cc1csc(N)n1)C(C)C ?
< 1 nM

Quick one: IC50 for CC(C)[C@H](NS(=O)(=O)CCc1ccccn1)C(=O)N[C@@H](Cc1ccccc1)[C@@H](O)[C@@H](O)[C@H](Cc1ccccc1)NC(=O)[C@H](NS(=O)(=O)CCc1ccccn1)C(C)C ?
< 1 nM
